# Assay details: Solubility tests of active agent in solvent systems
# Assay type: physicochemical
# Condition info: 0.10% polysorbate 80 + 5% ethanol + ammonium acetate pH 3.1, pH 3.1, aqueous with cosolvent or surfactant or cyclodextrin, thermodynamic from solid, Table 3: 0.10% polysorbate 80 + 5% ethanol + ammonium acetate pH 3.1; read-out: Solubilized miconazole ± S.D.
# Protocol: General example for the solubility tests Each of the solutions applied in the solubilization tests were prepared as follows (the specific amount of the components comes from the Tables below): 1. […] 2. The specific amount of co-solvent was measured into a beaker and the specific amount of the previously prepared 0.05M ammonium acetate solution was added. The pH of this solution was measured and set to pH 3.1 with glacial acetic acid. […]
Readout kind: solubility
Param answer (str): number followed by unit.

[ask] Hello, please tell me recorded solubility for this one: Clc1ccc(COC(Cn2ccnc2)c2ccc(Cl)cc2Cl)c(Cl)c1 (stereo not shown)
[reply] 2390 µg/mL

These data points were gathered from patent US20090253712A1.
